# reported CC50; entries follow
- measurement-notes: Cytotoxicity against human HepG2(2.2.15) cells
- Format: cell-based
result-type: CC50 (µM)

>>> df
                         chemical_structure  result_type  unit_descriptor  bound_type  value
0  CC1(C)[C@@H](O)CC[C@]2(C)[C@H]3C(=O)C=C4[C@@H]5C[C@@](C)(C(=O)OCCCCCCO)CC[C@]5(C)CC[C@@]4(C)[C@]3(C)CC[C@@H]12         CC50               µM           =   67.3
1  Cc1nc(COC(=O)[C@@]2(C)CC[C@]3(C)CC[C@]4(C)C(=CC(=O)[C@@H]5[C@@]6(C)CC[C@H](O)C(C)(C)[C@@H]6CC[C@]54C)[C@@H]3C2)cs1         CC50               µM           =   37.2
2  CC1(C)[C@@H](O)CC[C@]2(C)[C@H]3C(=O)C=C4[C@@H]5C[C@@](C)(C(=O)OCc6ccc(Br)cc6F)CC[C@]5(C)CC[C@@]4(C)[C@]3(C)CC[C@@H]12         CC50               µM           >   1430
3  CC1(C)[C@@H](O)CC[C@]2(C)[C@H]3C(=O)C=C4[C@@H]5C[C@@](C)(C(=O)OCc6cccc(Cl)c6)CC[C@]5(C)CC[C@@]4(C)[C@]3(C)CC[C@@H]12         CC50               µM           >   1850
4  CCCCCCOC(=O)[C@@]1(C)CC[C@]2(C)CC[C@]3(C)C(=CC(=O)[C@@H]4[C@@]5(C)CC[C@H](O)C(C)(C)[C@@H]5CC[C@]43C)[C@@H]2C1         CC50               µM           =    175

* * *

- measurement-notes: Cytotoxicity against human HepG2(2.2.15) cells
- Format: cell-based

chemical-structure	CC50
CC1(C)[C@@H](O)CC[C@]2(C)[C@H]3C(=O)C=C4[C@@H]5C[C@@](C)(C(=O)OCc6ccccc6)CC[C@]5(C)CC[C@@]4(C)[C@]3(C)CC[C@@H]12	2010 µM
COc1cccc(/C=C/C(=O)O[C@H]2CC[C@]3(C)[C@H]4CC=C5[C@@H]6C[C@@](C)(C(=O)OCc7ccc(C(F)(F)F)cc7)CC[C@]6(C)CC[C@@]5(C)[C@]4(C)CC[C@H]3C2(C)C)c1	> 899 µM
COc1cc(/C=C/C(=O)O[C@H]2CC[C@]3(C)[C@H]4CC=C5[C@@H]6C[C@@](C)(C(=O)OCc7ccc(Br)cc7F)CC[C@]6(C)CC[C@@]5(C)[C@]4(C)CC[C@H]3C2(C)C)cc(OC)c1OC	935 µM
CC1(C)[C@@H](O)CC[C@]2(C)[C@H]3C(=O)C=C4[C@@H]5C[C@@](C)(C(=O)OCC6CCOCC6)CC[C@]5(C)CC[C@@]4(C)[C@]3(C)CC[C@@H]12	> 1910 µM
CC1(C)[C@@H](O)CC[C@]2(C)[C@H]3C(=O)C=C4[C@@H]5C[C@@](C)(C(=O)OCC(N)=O)CC[C@]5(C)CC[C@@]4(C)[C@]3(C)CC[C@@H]12	55.3 µM
CCCCCCCCCCOC(=O)[C@@]1(C)CC[C@]2(C)CC[C@]3(C)C(=CC(=O)[C@@H]4[C@@]5(C)CC[C@H](O)C(C)(C)[C@@H]5CC[C@]43C)[C@@H]2C1	> 1030 µM
CC1(C)[C@@H](O)CC[C@]2(C)[C@H]3C(=O)C=C4[C@@H]5C[C@@](C)(C(=O)OCc6ccccc6C#N)CC[C@]5(C)CC[C@@]4(C)[C@]3(C)CC[C@@H]12	> 1540 µM
C=CCCOC(=O)[C@@]1(C)CC[C@]2(C)CC[C@]3(C)C(=CC(=O)[C@@H]4[C@@]5(C)CC[C@H](O)C(C)(C)[C@@H]5CC[C@]43C)[C@@H]2C1	> 1750 µM
COC(=O)[C@@]1(C)CC[C@]2(C)CC[C@]3(C)C(=CC(=O)[C@@H]4[C@@]5(C)CC[C@H](O)C(C)(C)[C@@H]5CC[C@]43C)[C@@H]2C1	> 1740 µM
CC1(C)[C@@H](OC(=O)c2cc(=O)c3ccccc3o2)CC[C@]2(C)[C@H]3CC=C4[C@@H]5C[C@@](C)(C(=O)OCc6ccc(Br)cc6F)CC[C@]5(C)CC[C@@]4(C)[C@]3(C)CC[C@@H]12	> 1080 µM

* * *

- measurement-notes: Cytotoxicity against human HepG2(2.2.15) cells
- Type: cell-based
# reported CC50; entries follow

chemical-structure	CC50
COc1cccc(/C=C/C(=O)O[C@H]2CC[C@]3(C)[C@H]4CC=C5[C@@H]6C[C@@](C)(C(=O)OCc7ccc(Br)cc7F)CC[C@]6(C)CC[C@@]5(C)[C@]4(C)CC[C@H]3C2(C)C)c1	> 1000 µM
COc1cc(/C=C/C(=O)O[C@H]2CC[C@]3(C)[C@H]4CC=C5[C@@H]6C[C@@](C)(C(=O)OCc7ccc(C(F)(F)F)cc7)CC[C@]6(C)CC[C@@]5(C)[C@]4(C)CC[C@H]3C2(C)C)cc(OC)c1OC	> 987 µM
CCOC(=O)CCCOC(=O)[C@@]1(C)CC[C@]2(C)CC[C@]3(C)C(=CC[C@@H]4[C@@]5(C)CC[C@H](O)C(C)(C)[C@@H]5CC[C@]43C)[C@@H]2C1	530 µM
CC1(C)[C@@H](OC(=O)c2cc(=O)c3ccccc3o2)CC[C@]2(C)[C@H]3CC=C4[C@@H]5C[C@@](C)(C(=O)OCC(N)=O)CC[C@]5(C)CC[C@@]4(C)[C@]3(C)CC[C@@H]12	> 944 µM
CCCCOC(=O)[C@@]1(C)CC[C@]2(C)CC[C@]3(C)C(=CC(=O)[C@@H]4[C@@]5(C)CC[C@H](O)C(C)(C)[C@@H]5CC[C@]43C)[C@@H]2C1	> 986 µM

* * *

- measurement-notes: Cytotoxicity against human HepG2(2.2.15) cells
- Assay type: cell-based
# reported CC50; entries follow

compound	CC50
CC1(C)[C@@H](O)CC[C@]2(C)[C@H]3C[C@H]4O[C@]45[C@@H]4C[C@@](C)(C(=O)O)CC[C@]4(C)CC[C@@]5(C)[C@]3(C)CC[C@@H]12	35.7 µM
CC1(C)[C@@H](O)CC[C@]2(C)[C@H]3C(=O)C=C4[C@@H]5C[C@@](C)(C(=O)OCc6cc(F)cc(F)c6)CC[C@]5(C)CC[C@@]4(C)[C@]3(C)CC[C@@H]12	> 1230 µM
CCC(=O)O[C@H]1CC[C@]2(C)[C@H]3C(=O)C=C4[C@@H]5C[C@@](C)(C(=O)O)CC[C@]5(C)CC[C@@]4(C)[C@]3(C)CC[C@H]2C1(C)C [GLYCYRRHETINIC ACID PROPIONATE]	99.6 µM
CC1(C)[C@@H](O)CC[C@]2(C)[C@H]3C(=O)C=C4[C@@H]5C[C@@](C)(C(=O)OCc6ccc([N+](=O)[O-])cc6)CC[C@]5(C)CC[C@@]4(C)[C@]3(C)CC[C@@H]12	> 1330 µM
CC1(C)[C@@H](O)CC[C@]2(C)[C@H]3CC=C4[C@@H]5C[C@@](C)(C(=O)OCC(N)=O)CC[C@]5(C)CC[C@@]4(C)[C@]3(C)CC[C@@H]12	472 µM

* * *

- measurement-notes: Cytotoxicity against human HepG2(2.2.15) cells
- Format: cell-based
# reported CC50; entries follow
result-type: CC50

>>> df
                         chemical_structure  result_type   value
0  CCOCCOC(=O)[C@@]1(C)CC[C@]2(C)CC[C@]3(C)C(=CC(=O)[C@@H]4[C@@]5(C)CC[C@H](O)C(C)(C)[C@@H]5CC[C@]43C)[C@@H]2C1         CC50  541 µM
1  CC1(C)[C@@H](O)CC[C@]2(C)[C@H]3C(=O)C=C4[C@@H]5C[C@@](C)(C(=O)OCCCCCCCCO)CC[C@]5(C)CC[C@@]4(C)[C@]3(C)CC[C@@H]12         CC50  157 µM
2  CC1(C)[C@@H](O)CC[C@]2(C)[C@H]3C(=O)C=C4[C@@H]5C[C@@](C)(C(=O)OCCCBr)CC[C@]5(C)CC[C@@]4(C)[C@]3(C)CC[C@@H]12         CC50  160 µM

* * *

- measurement-notes: Selectivity index, ratio of CC50 for human HepG2(2.2.15) cells to IC50 for HBV by viral DNA replication detection assay
- Type: functional

chemical-structure	bound-type	Ratio CC50/IC50
C=CCCOC(=O)[C@@]1(C)CC[C@]2(C)CC[C@]3(C)C(=CC(=O)[C@@H]4[C@@]5(C)CC[C@H](O)C(C)(C)[C@@H]5CC[C@]43C)[C@@H]2C1	>	5.3
CC1(C)[C@@H](O)CC[C@]2(C)[C@H]3C[C@H]4O[C@]45[C@@H]4C[C@@](C)(C(=O)O)CC[C@]4(C)CC[C@@]5(C)[C@]3(C)CC[C@@H]12	=	1.9
CC1(C)[C@@H](O)CC[C@]2(C)[C@H]3C(=O)C=C4[C@@H]5C[C@@](C)(C(=O)OCc6ccccc6C#N)CC[C@]5(C)CC[C@@]4(C)[C@]3(C)CC[C@@H]12	>	7.9
CC1(C)[C@@H](O)CC[C@]2(C)[C@H]3C(=O)C=C4[C@@H]5C[C@@](C)(C(=O)OCc6cccc(F)c6)CC[C@]5(C)CC[C@@]4(C)[C@]3(C)CC[C@@H]12	>	67.2
COc1cc(/C=C/C(=O)O[C@H]2CC[C@]3(C)[C@H]4C(=O)C=C5[C@@H]6C[C@@](C)(C(=O)O)CC[C@]6(C)CC[C@@]5(C)[C@]4(C)CC[C@H]3C2(C)C)cc(OC)c1OC	>	9.7
CCOC(=O)CCCCCOC(=O)[C@@]1(C)CC[C@]2(C)CC[C@]3(C)C(=CC(=O)[C@@H]4[C@@]5(C)CC[C@H](O)C(C)(C)[C@@H]5CC[C@]43C)[C@@H]2C1	=	1.2
Cc1nc(COC(=O)[C@@]2(C)CC[C@]3(C)CC[C@]4(C)C(=CC(=O)[C@@H]5[C@@]6(C)CC[C@H](O)C(C)(C)[C@@H]6CC[C@]54C)[C@@H]3C2)cs1	=	4.1
CC1(C)[C@@H](O)CC[C@]2(C)[C@H]3C(=O)C=C4[C@@H]5C[C@@](C)(C(=O)OCc6ccc(I)cc6)CC[C@]5(C)CC[C@@]4(C)[C@]3(C)CC[C@@H]12	>	172.6
CC1(C)[C@@H](O)CC[C@]2(C)[C@H]3C(=O)C=C4[C@@H]5C[C@@](C)(C(=O)OCc6ccc(Br)cc6F)CC[C@]5(C)CC[C@@]4(C)[C@]3(C)CC[C@@H]12	>	79
CC1(C)[C@@H](O)CC[C@]2(C)[C@H]3C(=O)C=C4[C@@H]5C[C@@](C)(C(=O)OCC6CC6)CC[C@]5(C)CC[C@@]4(C)[C@]3(C)CC[C@@H]12	=	10.4
CC1(C)[C@@H](O)CC[C@]2(C)[C@H]3C(=O)C=C4[C@@H]5C[C@@](C)(C(=O)OCC(N)=O)CC[C@]5(C)CC[C@@]4(C)[C@]3(C)CC[C@@H]12	=	1.9

Origin of the recorded values: ChEMBL document CHEMBL2021793
